test: ovarian cancer cell viability with rucaparib, profiling panel, oncology-focused library, rucaparib conditional (AID 1508598)
conditions used: patient-derived ovarian cancer cells, CellTiter-Glo viability, 144 h; at 0.00122 µM; OCI-C5x cells; without rucaparib; hits give low values
endpoint: viability (%)

O=S(=O)(CC1CS1)c1ccc(Oc2ccccc2)cc1 (stereo not drawn) | 111
Cc1sc2c(c1C)C(c1ccc(Cl)cc1)=N[C@@H](CC(N)=O)c1nnc(C)n1-2 | 124
Cn1c(CCCC(=O)O)nc2cc(N(CCCl)CCCl)ccc21 | 99.1

* * *

System: Aerobactin synthetase IucA (Klebsiella pneumoniae hvKP1)
test: Biochemical IucA enzyme inhibition primary screen of the Spectrum library (AID 1346200);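 note: 100% = wells without compound and 0% = wells lacking enzyme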
conditions used: malachite green pyrophosphate, A620, at 8 µM, hits give low values
Entries and their activity remaining values follow.
endpoint: activity remaining (%)

CCCCCCCCCCCCCC(=O)O[C@@H]1[C@@H](C)[C@@]2(O)[C@@H](C=C(CO)C[C@]3(O)C(=O)C(C)=C[C@@H]23)[C@@H]2C(C)(C)[C@]12OC(C)=O | 115
CCN(CC)CCOCCOC(=O)C1(c2ccccc2)CCCC1 | 93.9
COc1ccc2c(c1)CCC1C2CCC2(C)C1C[C@@H](O)C2O (some centres not stated) | 114
COc1c(C)c2c(c(O)c1C/C=C(\C)CCC(=O)O)C(=O)OC2 | 98.9
CCC[C@H](N[C@@H](C)C(=O)N1[C@H](C(=O)O)C[C@@H]2CCCC[C@@H]21)C(=O)OCC | 121
COc1ccc([C@@H](C)C(=O)c2ccc(O)cc2O)cc1 | 118
NCC(=O)c1ccccc1 | 114
COc1ccc(-c2cc(=O)c3cc(OC)ccc3o2)cc1 | 95.7
CC(C)(CO)C(O)C(=O)NCCCO (configuration not stated) | 118
O=c1cccc2ccc(O)c(O)c2c1O | 86.6
COc1cc(/C=C/C(=O)O)ccc1O | 100
CCOP(=S)(OCC)Oc1cc(C)nc(C(C)C)n1 | 77.6
CC(=O)OCC(=O)[C@@]1(O)CCC2C3CCC4=CC(=O)C=CC4(C)C3[C@@H](O)C[C@@]21C (some centres not stated) | 81.1
C[C@]12CCC3c4ccc(OS(=O)(=O)O)cc4CCC3C1CC[C@H]2O (some centres not stated) | 102
COCCOC(=O)C1=C(C)NC(C)=C(C(=O)OC(C)C)C1c1cccc([N+](=O)[O-])c1 (configuration not stated) | 118
Cc1c(N(C)CS(=O)(=O)O)c(=O)n(-c2ccccc2)n1C | 97.1
NC(CO)C(=O)NNCc1ccc(O)c(O)c1O (configuration not stated) | 109
NCCc1cc(O)c(O)cc1O | 78.8
Cc1[nH]c(C)c(Cl)c(=O)c1Cl | 121
C[C@@H]1CC[C@@]2(NC1)O[C@H]1C[C@H]3C4CC=C5C[C@@H](O)CC[C@]5(C)C4CC[C@]3(C)C1[C@@H]2C (some centres not stated) | 118
CC(=O)S[C@@H]1CC2=CC(=O)CC[C@]2(C)[C@H]2CC[C@@]3(C)[C@@H](CC[C@@]34CCC(=O)O4)C12 (some centres not stated) | 106
CC(=O)[C@H]1CCC2C3CC=C4C[C@@H](OC(=O)CCC(=O)O)CC[C@]4(C)C3CC[C@@]21C (some centres not stated) | 117
CC(NCCC(c1ccccc1)c1ccccc1)c1ccccc1 (configuration not stated) | 104
CN(C)c1ccc2nc3ccc(=[N+](C)C)cc-3sc2c1 | 104
Oc1cc(O)c2c(c1)O[C@H](c1ccc(O)c(O)c1)[C@@H](O)C2 | 93
CCCC(=O)Nc1ccc(OCC(O)CNC(C)C)c(C(C)=O)c1 (configuration not stated) | 120
C[N+](C)(C)CCCCCC[N+](C)(C)C | 122
CC(C)=CCc1c(O)cc2oc(C)cc(=O)c2c1O | 118
COc1cc(OC)c(C(C)=O)c(O)c1C | 101
C[C@H]1CC2C([C@@H](O)C[C@@]3(C)C2CC[C@]3(O)C(=O)CO)[C@@]2(C)C=CC(=O)C=C12 (some centres not stated) | 115
OC[C@@H](O)C(O[C@@H]1O[C@H](CO)[C@H](O)[C@H](O)[C@H]1O)[C@H](O)[C@@H](O)CO (some centres not stated) | 116
CC(=O)c1ccc2c(c1)N(CCCN(C)C)c1ccccc1S2 | 104
Cc1ccc(C)c(OCCCC(C)(C)C(=O)O)c1 | 116
O=C(/C=C/c1ccc(O)c(O)c1)OCCc1ccccc1 | 78.8
COc1ccc(CC(=O)c2ccc(O)cc2O)cc1 | 111
C[C@H](CCC(=O)O)[C@H]1CCC2C3C(CC[C@@]21C)[C@@]1(C)CC[C@@H](O)C[C@H]1C[C@H]3O (some centres not stated) | 101
C[N+](C)(C)CCOP(=O)([O-])OP(=O)(O)OC[C@H]1OC(n2ccc(N)nc2=O)[C@H](O)[C@@H]1O (some centres not stated) | 118
COc1ccc2c(c1)c(CC(=O)O)c(C)n2C(=O)c1ccc(Cl)cc1 | 103
CCCc1cc(=O)[nH]c(=S)[nH]1 | 120
CC1O[C@@H](Oc2c(-c3ccc(O)c(O)c3)oc3cc(O)cc(O)c3c2=O)[C@H](O)[C@H](O)[C@H]1O (some centres not stated) | 111
CN1C(C(=O)Nc2ccccn2)=C(O)c2sccc2S1(=O)=O | 82.2
CC(C)=CCCC1(C)C=Cc2c(O)c3c(c(CC=C(C)C)c2O1)OC12C(=CC4CC1C(C)(C)OC2(C/C=C(/C)C(=O)O)C4O)C3=O (configuration not stated) | 106
